These measurements were taken from PubChem BioAssay.

Tested target: Carbonic anhydrase 2 (Homo sapiens) (UniProt P00918)
Assay summary: CAII small-molecule binders, profiling panel, biochemical, small-molecule microarray, Alexa647-labelled CAII (AID 1122)
Test context: CAII-A647 binding fluorescence, higher = more signal
Reported composite z-score values for the following compounds.
// return just the number, without any unit appended

INSERT INTO measurements (compound, tested_target, value_measured) VALUES
  ('CO[C@H]1O[C@H](CO)[C@@H](OC(=O)Nc2ccc3c(c2)OCO3)[C@H](OC(=O)c2cc3ccccc3[nH]2)[C@H]1OC(=O)c1cc2ccccc2[nH]1', 'Carbonic anhydrase 2 (Homo sapiens) (UniProt P00918)', 0.402),
  ('C=CCOC(=O)[C@H]1[C@@H]2C(=O)O[C@@H](c3ccccc3)[C@@H](c3ccccc3)N2[C@@H](c2ccc(OCCOC(=O)[C@H]3C[C@H]4C(=O)N[C@@H](CCCCNC(C)=O)C(=O)N4[C@H]3c3ccc(O)cc3)cc2)[C@]12C(=O)Nc1ccccc12', 'Carbonic anhydrase 2 (Homo sapiens) (UniProt P00918)', 0.634),
  ('CCOC(=O)c1ccc(NC(=O)O[C@H]2[C@H](OC(=O)Nc3ccc4c(c3)OCO4)[C@@H](OC(=O)Nc3ccc4c(c3)OCO4)[C@@H](OC)O[C@@H]2CO)cc1', 'Carbonic anhydrase 2 (Homo sapiens) (UniProt P00918)', 0.516);

Param item: `O=C1O[C@H](c2ccccc2)[C@H](c2ccccc2)N2[C@H]1[C@@H](C(=O)N1CCN(c3ncccn3)CC1)[C@]1(C(=O)Nc3ccc(C#CC4(O)CCCCCC4)cc31)[C@H]2c1ccc(OCCO)cc1` ; param system: Carbonic anhydrase 2 (Homo sapiens) (UniProt P00918); output composite z-score: 0.62

Param item: `CN(C)CCCNC(=O)[C@@]1(c2ccc([N+](=O)[O-])cc2)CC(=O)N(CC23CC4CC(CC(C4)C2)C3)[C@@H]1c1ccc(CO)cc1I` ; param system: Carbonic anhydrase 2 (Homo sapiens) (UniProt P00918); output composite z-score: 0.511

Param item: O=C1NC(=O)C2C1C=CC(C(O)CCc1ccccc1)N2Nc1ccc(Cl)cc1Cl (stereo not given) ; param system: Carbonic anhydrase 2 (Homo sapiens) (UniProt P00918); output composite z-score: 0.79

Param item: `CCOC(=O)C[C@H]1[C@H](OC(=O)c2cc3ccccc3oc2=O)[C@@H](NC(=O)c2ccc(-c3ccccc3)cc2)c2cc(OCCCO)ccc2N1C(=O)c1ccccc1` ; param system: Carbonic anhydrase 2 (Homo sapiens) (UniProt P00918); output composite z-score: 0.274

Param item: `CCCCC(=C=CC[C@@H](O)c1ccccc1OCCO)C[C@@H](O)COCc1ccccc1` ; param system: Carbonic anhydrase 2 (Homo sapiens) (UniProt P00918); output composite z-score: 0.47

Param item: `COC(=O)CCCCCCC(=O)Nc1ccc(NC(=O)CCCC[P+](c2ccccc2)(c2ccccc2)c2ccccc2)cc1` ; param system: Carbonic anhydrase 2 (Homo sapiens) (UniProt P00918); output composite z-score: -0.281

Param item: `C[C@@H]1ON(c2ccc(C(=O)OC(C)(C)C)cc2)[C@H](c2ccc(O)cc2)[C@H]1C(=O)N1C(=O)OC[C@H]1Cc1ccccc1` ; param system: Carbonic anhydrase 2 (Homo sapiens) (UniProt P00918); output composite z-score: 0.217
